- Target Under Test: NA of the whole Neth09H1N1 virus (Influenza A virus)
- Assay type: biochemical, Influenza virus A/Netherlands/602/2009 (Neth09H1N1)
- Condition Details: read-out: inhibition of NA of the whole virus in enzymatic MUNANA assay (IC50 μM)
Measurement Kind: IC50 (µM)
Please respond with the number in µM and leave the unit unwritten.

Summary for this molecule, C#CCCCC[C@H](CC)O[C@@H]1OC(C(=O)O)=C[C@H](O)[C@H]1NC(C)=O : IC50 is 2.33

Summary for this molecule, CC[C@@H](CCCCc1cn([C@H]2[C@H](OC(C)=O)[C@@H](OC(C)=O)[C@H](n3cc(CCCC[C@H](CC)O[C@@H]4OC(C(=O)O)=C[C@H](O)[C@H]4NC(C)=O)nn3)O[C@@H]2COC(C)=O)nn1)O[C@@H]1OC(C(=O)O)=C[C@H](O)[C@H]1NC(C)=O [Compound 17a] : IC50 is 9.4

Summary for this molecule, CCC(CC)O[C@@H]1C=C(C(=O)O)C[C@H](N)[C@H]1NC(C)=O [OC, oseltamivir carboxylate, reference compound] : IC50 is 0.004

Summary for this molecule, CC[C@@H](CCCCc1cn([C@H]2[C@H](O)[C@@H](O)[C@H](n3cc(-c4ccc(-c5cn([C@H]6[C@H](O)[C@@H](O)[C@H](n7cc(-c8ccc(-c9cn([C@@H]%10O[C@H](CO)[C@@H](n%11cc(CCCC[C@H](CC)O[C@@H]%12OC(C(=O)O)=C[C@H](O)[C@H]%12NC(C)=O)nn%11)[C@H](O)[C@H]%10O)nn9)cc8)nn7)O[C@@H]6CO)nn5)cc4)nn3)O[C@@H]2CO)nn1)O[C@@H]1OC(C(=O)O)=C[C@H](O)[C@H]1NC(C)=O : IC50 is 0.11
